From: PubChem BioAssay (NCI)

system: SW-620 colon; assay: NCI tumour cell line growth inhibition, 48 h
Reported GI50 values are given for each entry in this list.

compound: O=C(Nc1ccc(I)cc1F)c1cc(Br)ccc1O
GI50: 849 nM

compound: CCOC(=O)c1c(NN2CCN(CC(F)(F)F)CC2)oc(/C=C2\C=Nc3ncccc32)c1O
GI50: 808 nM

compound: COc1cc2c(cc1OC)[C@@H]1C(=O)c3ccc4c(c3O[C@@H]1CO2)C[C@H](C(C)C)O4
GI50: 9050 nM

compound: Cc1cc(-c2nc3sc(C)cn3c2/C=N/N=C(N)N)c(C)s1
GI50: 3330 nM

compound: COc1ccc(C2c3ccc4ccccc4c3Oc3ncn(CCCn4ccnc4)c(=N)c32)cc1OC (centres undefined)
GI50: 2730 nM

compound: O=C1OC2(c3ccc(O)cc3Oc3cc(O)ccc32)c2cccc3cccc1c23
GI50: 16500 nM

compound: COc1ccc(OC)c(N2CC(O)=C(c3nc4ccccc4s3)C2=N)c1
GI50: 32700 nM

compound: Cn1cnc([N+](=O)[O-])c1S(=O)(=O)Oc1ccc(Cl)cc1
GI50: 1690 nM

# GI50 lookup, item `COc1cc(CSc2nc3ccc(Cl)cc3c(=O)n2Cc2ccccc2)cc(OC)c1OC`
2650 nM
